# measured_on: recombinant human liver glycogen phosphorylase (HLGPa) (Homo sapiens)
# Sequence (P06737 1-847): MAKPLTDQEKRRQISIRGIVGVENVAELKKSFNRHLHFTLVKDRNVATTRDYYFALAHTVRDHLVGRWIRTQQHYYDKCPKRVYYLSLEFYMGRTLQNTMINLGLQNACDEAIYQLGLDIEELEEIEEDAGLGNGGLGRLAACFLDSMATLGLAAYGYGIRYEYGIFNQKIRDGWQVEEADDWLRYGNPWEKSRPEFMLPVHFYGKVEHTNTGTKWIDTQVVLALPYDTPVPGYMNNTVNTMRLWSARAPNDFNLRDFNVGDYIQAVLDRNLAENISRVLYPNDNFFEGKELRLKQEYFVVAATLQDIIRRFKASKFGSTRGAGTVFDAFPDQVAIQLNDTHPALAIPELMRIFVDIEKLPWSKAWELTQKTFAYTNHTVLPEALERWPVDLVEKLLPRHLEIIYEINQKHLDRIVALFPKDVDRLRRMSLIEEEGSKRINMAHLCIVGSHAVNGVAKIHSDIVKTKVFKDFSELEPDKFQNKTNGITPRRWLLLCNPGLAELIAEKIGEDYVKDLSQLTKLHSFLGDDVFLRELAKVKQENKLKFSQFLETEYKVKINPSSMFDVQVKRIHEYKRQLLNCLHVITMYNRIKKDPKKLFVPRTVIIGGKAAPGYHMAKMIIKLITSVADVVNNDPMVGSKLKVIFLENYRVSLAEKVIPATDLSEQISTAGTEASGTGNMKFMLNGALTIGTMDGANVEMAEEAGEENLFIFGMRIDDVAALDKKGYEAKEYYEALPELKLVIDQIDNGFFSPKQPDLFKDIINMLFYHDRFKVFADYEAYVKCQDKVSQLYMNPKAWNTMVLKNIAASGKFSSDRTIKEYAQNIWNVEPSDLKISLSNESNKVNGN
# procedure_summary: Measurement of liver glycogen phosphorylase activity (enzyme inhibitory activity against HLGPa)
# run_conditions: Sf9 cell lysate expressing recombinant enzyme; reverse reaction (glycogen synthesis from G1-P), phosphate by malachite green, 60 min room temperature
pIC50: −log10 of the molar value.
reported_endpoint: pIC50

// below: answered molecules
# molecule, pIC50
rows = [
    ("COc1ccccc1C(=N)NNC(=O)c1cc2cc(Cl)ccc2[nH]1 [Example 6-24, methanesulfonate]", 6.80),
    ("O=C(Nc1ccccc1C(=O)NNC(=O)c1cc2cc(Cl)ccc2[nH]1)Oc1ccccc1", 6.85),
    ("O=C(NNC(=O)c1cc2cc(Cl)ccc2[nH]1)c1ccccc1", 7.42),
    ("N=C(NNC(=O)c1cc2cc(Cl)ccc2[nH]1)c1ccccc1Cl.O=C(O)/C=C\\C(=O)O", 7.31),
    ("O=C(NNC(=O)c1cc2cc(Cl)ccc2[nH]1)Nc1cccc(F)c1", 7.31),
    ("O=C(NNC(=O)c1ccc(Cl)cc1Cl)c1cc2cc(Cl)ccc2[nH]1", 6.77),
    ("O=C(NNC(=O)c1cc2cc(Cl)ccc2[nH]1)c1cccc(Cl)c1", 7.46),
    ("O=C(NNC(=O)c1cc2cc(Cl)ccc2[nH]1)c1c[nH]cn1", 7.55),
]

(A) O=C(NNC(=O)C1(c2ccccc2)CC1)c1cc2cc(Cl)ccc2[nH]1
(B) O=C(NNC(=O)c1cc2cc(Cl)ccc2[nH]1)c1cccnc1
Prompt line: Lab notebook, comparison: A versus B , higher pIC50 goes to which? Returns: label corresponding to the selected item.
Response line: B
